Give z-score for every item shown.
Assay: activators of macrophage pro-inflammatory response, cell-based, murine, luminescence (AID 652131); further: test concentration not given here
Conditions: murine macrophage pro-inflammatory reporter, stronger effect = higher value
Answers are plain numbers.

The examples below pair each entry with its known result.
1) FC(F)(F)c1cccc(Nc2nccc(-c3cnn4nc(-c5ccccc5)ccc34)n2)c1	-0.793
2) CN1CCC(n2cnc(-c3ccc(F)cc3)c2-c2ccnc(N)n2)CC1	3.77

Count: 6. Required value per item: z-score.
1. CN(c1ccc(NC(=O)NCCN2CCOCC2)cc1)c1ccnc(Nc2ccc(CS(C)(=O)=O)cc2)n1
2. CN(C)c1ccc2[nH]c(O)c(C=Nc3ccc(S(N)(=O)=O)cc3)c2c1
3. Cc1cc(O)cc(C)c1/C=C/c1cncc(-c2nn[nH]n2)c1
4. OCCCNc1nccc(-c2c(-c3ccc(F)cc3)nn3cc(C(F)(F)F)ccc23)n1
5. Fc1ccc(-c2ncn(C3CCNCC3)c2-c2ccnc(Oc3ccc(Oc4ccccc4)cc3)n2)cc1
6. COc1cc2ncn(-c3cc(O[C@@H](C)c4ccccc4Cl)c(C(N)=O)s3)c2cc1OC

[2.96, 0.675, 3.53, 0.66, -0.715, -0.639]

The measurements presented in this section are drawn from PubChem BioAssay.
